# tested system: Substance-P receptor (Homo sapiens)
# Sequence (P25103 whole entry): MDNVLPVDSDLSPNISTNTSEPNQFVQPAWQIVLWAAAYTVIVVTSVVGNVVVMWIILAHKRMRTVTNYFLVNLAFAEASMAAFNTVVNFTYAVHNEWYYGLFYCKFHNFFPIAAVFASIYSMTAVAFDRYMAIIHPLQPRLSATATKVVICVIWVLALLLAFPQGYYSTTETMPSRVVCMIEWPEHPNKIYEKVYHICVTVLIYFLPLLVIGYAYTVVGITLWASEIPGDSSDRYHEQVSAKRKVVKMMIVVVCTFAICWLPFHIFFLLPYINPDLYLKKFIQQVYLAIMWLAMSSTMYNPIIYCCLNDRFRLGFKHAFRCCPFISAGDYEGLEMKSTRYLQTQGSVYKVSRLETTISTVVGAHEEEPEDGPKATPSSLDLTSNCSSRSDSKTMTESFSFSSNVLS
# assay comment: Displacement of [3H]SAr-Met from human recombinant NK1 receptor expressed in CHO cells
Mark Criterion met only for Ki values smaller than 0.3 nM; exact matches and larger values are Criterion not met.

{"mol": "C[C@@H](OC[C@@]1(c2ccccc2)CC[C@H](NC(=O)C2CC2)CN1)c1cc(C(F)(F)F)cc(C(F)(F)F)c1", "category label": "Criterion met"}
{"mol": "C[C@@H](OC[C@@]1(c2ccccc2)CC[C@H](N2CCNC2=O)CN1)c1cc(C(F)(F)F)cc(C(F)(F)F)c1", "category label": "Criterion not met"}
{"mol": "C[C@@H](OC[C@@]1(c2ccccc2)CC[C@H](NS(C)(=O)=O)CN1)c1cc(C(F)(F)F)cc(C(F)(F)F)c1", "category label": "Criterion not met"}
{"mol": "CC(=O)N[C@H]1CC[C@@](CO[C@H](C)c2cc(C(F)(F)F)cc(C(F)(F)F)c2)(c2ccccc2)NC1", "category label": "Criterion met"}
{"mol": "C[C@@H](OC[C@@]1(c2ccccc2)CC[C@H](NC2=NCCO2)CN1)c1cc(C(F)(F)F)cc(C(F)(F)F)c1", "category label": "Criterion met"}
{"mol": "CCNC(=O)[C@H]1CC[C@@](CO[C@H](C)c2cc(C(F)(F)F)cc(C(F)(F)F)c2)(c2ccccc2)NC1", "category label": "Criterion not met"}
{"mol": "C[C@@H](OC[C@@]1(c2ccccc2)CC[C@H](C(N)=O)CN1)c1cc(C(F)(F)F)cc(C(F)(F)F)c1", "category label": "Criterion met"}
{"mol": "CNC(=O)[C@@H]1CC[C@@](CO[C@H](C)c2cc(C(F)(F)F)cc(C(F)(F)F)c2)(c2ccccc2)NC1", "category label": "Criterion not met"}
{"mol": "C[C@@H](OC[C@@]1(c2ccccc2)CC[C@@H](C(=O)NC2CC2)CN1)c1cc(C(F)(F)F)cc(C(F)(F)F)c1", "category label": "Criterion not met"}
{"mol": "C[C@@H](OC[C@@]1(c2ccccc2)CC[C@H](N2CCCC2=O)CN1)c1cc(C(F)(F)F)cc(C(F)(F)F)c1", "category label": "Criterion met"}
{"mol": "CCC(=O)N[C@H]1CC[C@@](CO[C@H](C)c2cc(C(F)(F)F)cc(C(F)(F)F)c2)(c2ccccc2)NC1", "category label": "Criterion met"}
{"mol": "CNC(=O)[C@H]1CC[C@@](CO[C@H](C)c2cc(C(F)(F)F)cc(C(F)(F)F)c2)(c2ccccc2)NC1", "category label": "Criterion met"}

---

# Test system: Meriones unguiculatus
# assay comment: Inhibition of GR-73632-induced foot tapping in Mongolian gerbil assessed as duration of repetitive hind foot tapping pretreated at 0.3 mg/kg, icv before GR-73632 challenge measured after 4 hrs
# Type: functional
# assay setup: oral, in the assay text read “po” for “icv”

{"mol": "C[C@@H](OC[C@@]1(c2ccccc2)CC[C@H](NS(C)(=O)=O)CN1)c1cc(C(F)(F)F)cc(C(F)(F)F)c1", "tested system": "Meriones unguiculatus", "inhibition in vivo at 0.3 mg/kg (%)": 25}
{"mol": "CC(=O)N[C@H]1CC[C@@](CO[C@H](C)c2cc(C(F)(F)F)cc(C(F)(F)F)c2)(c2ccccc2)NC1", "tested system": "Meriones unguiculatus", "inhibition in vivo at 0.3 mg/kg (%)": 99}
{"mol": "C[C@@H](OC[C@@]1(c2ccccc2)CC[C@@H](C(N)=O)CN1)c1cc(C(F)(F)F)cc(C(F)(F)F)c1", "tested system": "Meriones unguiculatus", "inhibition in vivo at 0.3 mg/kg (%)": 75}
{"mol": "C[C@@H](OC[C@@]1(c2ccccc2)CC[C@H](N2CCNC2=O)CN1)c1cc(C(F)(F)F)cc(C(F)(F)F)c1", "tested system": "Meriones unguiculatus", "inhibition in vivo at 0.3 mg/kg (%)": 71}
{"mol": "C[C@@H](OC[C@@]1(c2ccccc2)CC[C@H](C(N)=O)CN1)c1cc(C(F)(F)F)cc(C(F)(F)F)c1", "tested system": "Meriones unguiculatus", "inhibition in vivo at 0.3 mg/kg (%)": 82}
{"mol": "C[C@@H](OC[C@@]1(c2ccccc2)CC[C@H](NC(N)=O)CN1)c1cc(C(F)(F)F)cc(C(F)(F)F)c1", "tested system": "Meriones unguiculatus", "inhibition in vivo at 0.3 mg/kg (%)": 6}
{"mol": "C[C@@H](OC[C@@]1(c2ccccc2)CC[C@H](NC(=O)C2CC2)CN1)c1cc(C(F)(F)F)cc(C(F)(F)F)c1", "tested system": "Meriones unguiculatus", "inhibition in vivo at 0.3 mg/kg (%)": 79}
{"mol": "CNC(=O)[C@H]1CC[C@@](CO[C@H](C)c2cc(C(F)(F)F)cc(C(F)(F)F)c2)(c2ccccc2)NC1", "tested system": "Meriones unguiculatus", "inhibition in vivo at 0.3 mg/kg (%)": 29}
{"mol": "CCC(=O)N[C@H]1CC[C@@](CO[C@H](C)c2cc(C(F)(F)F)cc(C(F)(F)F)c2)(c2ccccc2)NC1", "tested system": "Meriones unguiculatus", "inhibition in vivo at 0.3 mg/kg (%)": 93}
{"mol": "CC(=O)N[C@@H]1CC[C@@](CO[C@H](C)c2cc(C(F)(F)F)cc(C(F)(F)F)c2)(c2ccccc2)NC1", "tested system": "Meriones unguiculatus", "inhibition in vivo at 0.3 mg/kg (%)": 36}
{"mol": "CCNC(=O)[C@H]1CC[C@@](CO[C@H](C)c2cc(C(F)(F)F)cc(C(F)(F)F)c2)(c2ccccc2)NC1", "tested system": "Meriones unguiculatus", "inhibition in vivo at 0.3 mg/kg (%)": 28}
